Test system: T-cell proliferation
MEASUREMENT_NOTES: T-Lymphocyte proliferation assay (PHA-activated PBMCs, Alamar blue)
Assay type: cell-based
COND: T-cell; human PBMC T-cells activated with phytohemagglutinin-L, 48 h, in vitro; read-out: IC50 against T-cell proliferation
OBSERVED_PROPERTY: IC50 (µM)
Field: numeric (µM). Do not append units.

Consider the reported IC50 for these compounds:
{"columns": ["COMPOUND", "IC50, µM"],
 "data": [
  ["C[C@@H]1CC2=CC(=O)CC[C@@H]2[C@H]2CC[C@@]3(C)[C@@H](CC[C@]3(C)O)[C@@H]21", 6.55],
  ["C[C@]12C=CC(=O)C=C1CC[C@@H]1[C@@H]2[C@@H](O)C[C@@]2(C)[C@H]1CC[C@]2(O)C(=O)CO [prednisolone, reference compound]", 9.75],
  ["CC1=CC2=CC(=O)CC[C@@H]2[C@H]2CC[C@@]3(C)[C@@H](CC[C@]3(C)O)[C@H]12", 3.83]
]}

Next, consider the following compound.
Challenge: Record C[C@@H]1Cc2cc(O)ccc2[C@@H]2[C@@H]1[C@@H]1CC[C@](C)(O)[C@@]1(C)C[C@@H]2O : what is its IC50 with T-cell proliferation?
Response given: 4.24
